Assay: Thermostability (Tm, Tonset, Tagg) by Nanotemper DSF
Type: physicochemical
Settings: Average of two replicates; anti-Fel d1 VHH; in °C (unit assumed)
Label 1 when Tm ø (mean), first melting point (Tm1) is at or above 50; anything below gets -1.

Prompt: Textbook exercise: given the entry DAB22110-1-1-C3 (protein) VHH: QLQLVESGGGLVQPGGSLRLSCEASGFTFKYYTMSWYRQAPGKERELVATITNGDRTNYADSVKGRFTISRDNAKNTLYLQMNSLKPYDTAVYYCNRHLPLLQIWGQGTQVTVSS , state whether its Tm ø (mean), first melting point (Tm1) is greater than or equal to 50.
Completion: 1

Prompt: Entry SDAB22110-3-2-H08: anti-Fel d1 VHH clone, SEQ ID NO: 53 (protein) VHH: QVQLVESGGGLVQPGGSLRLSCAASGFTFSRKGMSWYRQVPGKEREWVARIYSTGEKTDYADSVKGRFTISRDNAKNMVYLDMNSLKPEDTAVYYCKAWGYEYWNQGTQVTVSS please
Completion: -1

Prompt: Entry SDAB22110-4-3-E05: anti-Fel d1 VHH clone, SEQ ID NO: 55 (protein) VHH: QVQLVESGGGLVQPGGSLRLSCVGSGFTFSQYAMRWYRQVPGKARELVAAISRSGDFMYYADSVKGRFTISRDNVKSAVILQMNSLKPEDTAVYYCYGQATISDTLWGQGTQVTVSS please
Completion: -1

Prompt: Entry SDAB22110-1-1-B9-1: anti-Fel d1 VHH clone, SEQ ID NO: 50 (protein) VHH: DVQLVESGGGWVQPGGSLRLSCAASGFTFTSYALSWVRQAPGKGLEWVSLADARGTSTTYADSVKGRFTISKDNPRNTLYLLMNSLKPEDTAVYYCTKGFDGNWYPDYDYWGQGTQVTVSS please
Completion: 1

Prompt: Entry SDAB22110-3-1-D9-1: anti-Fel d1 VHH clone, SEQ ID NO: 52 (protein) VHH: AVQLVESGGGLVQPGGSLRLSCIISGFTSVSYSIVWFRQAPGKGREGVSCIGSSGGSTDYIDSVKGRFTISRDSAKNTVYLQMDCLKPEDTAVYYCAALRDVYRLCVIDYMNNDYWGQGTQVTVSS please
Completion: -1

Prompt: Entry SDAB22110-4-3-H02: anti-Fel d1 VHH clone, SEQ ID NO: 57 (protein) VHH: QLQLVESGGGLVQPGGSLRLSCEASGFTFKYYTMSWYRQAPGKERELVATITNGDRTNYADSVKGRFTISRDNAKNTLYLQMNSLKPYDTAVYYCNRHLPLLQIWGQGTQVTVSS please
Completion: 1

Prompt: Entry SDAB22110-4-3-B02: anti-Fel d1 VHH clone, SEQ ID NO: 54 (protein) VHH: QVQLVESGGGLVQPGGSLRLSCVASGFTFSFYTMEWYRQAAGKQRELVAGLTASGTTHYADSAKGRFTISRDNAWNTVFLQMNGLKPEDTAVYYCNAYSGYRDYWGQGTQVTVSL please
Completion: -1
